The reader will find reported TGI values listed item by item below.
System: RPMI-8226 leukemia
experimentalProtocol: NCI tumour cell line growth inhibition, 48 h
Note: unit µM is implicit; provide only the numeric part.

query: # get_value(readout='TGI', item= Cc1cc2nc(-c3c(F)cccc3F)n(Cc3c(F)cccc3F)c2cc1C )
result: 24

query: # get_value(readout='TGI', item= O=C(OCCBr)c1ccc(Cl)c([N+](=O)[O-])c1 )
result: 19

query: # get_value(readout='TGI', item= O=C(COc1cccc(/C=C2\COc3ccc(Cl)cc3C2=O)c1)c1ccc(Cl)cc1 )
result: 5.14

query: # get_value(readout='TGI', item= Nc1ccc(-c2ccc(N)cc2I)c(I)c1 )
result: 37.7

query: # get_value(readout='TGI', item= CCCCNC(=O)NS(=O)(=O)c1ccc(N2N=C(c3cc(C)ccc3C)CC2c2cc(OC)c(OC)c(OC)c2)cc1 (stereo unspecified) )
result: 5.49

query: # get_value(readout='TGI', item= CCSc1nc(=[N+]2CCCC2)ss1 )
result: 22.8

query: # get_value(readout='TGI', item= C/C=C/C=C/CCCCCCCCCCCCCC1(OC)C=CC(CC(=O)OC)OO1 (stereo unspecified) )
result: 46
